TARGET: Receptor-type tyrosine-protein kinase FLT3 (Homo sapiens, UniProt P36888)
Sequence (P36888 whole entry): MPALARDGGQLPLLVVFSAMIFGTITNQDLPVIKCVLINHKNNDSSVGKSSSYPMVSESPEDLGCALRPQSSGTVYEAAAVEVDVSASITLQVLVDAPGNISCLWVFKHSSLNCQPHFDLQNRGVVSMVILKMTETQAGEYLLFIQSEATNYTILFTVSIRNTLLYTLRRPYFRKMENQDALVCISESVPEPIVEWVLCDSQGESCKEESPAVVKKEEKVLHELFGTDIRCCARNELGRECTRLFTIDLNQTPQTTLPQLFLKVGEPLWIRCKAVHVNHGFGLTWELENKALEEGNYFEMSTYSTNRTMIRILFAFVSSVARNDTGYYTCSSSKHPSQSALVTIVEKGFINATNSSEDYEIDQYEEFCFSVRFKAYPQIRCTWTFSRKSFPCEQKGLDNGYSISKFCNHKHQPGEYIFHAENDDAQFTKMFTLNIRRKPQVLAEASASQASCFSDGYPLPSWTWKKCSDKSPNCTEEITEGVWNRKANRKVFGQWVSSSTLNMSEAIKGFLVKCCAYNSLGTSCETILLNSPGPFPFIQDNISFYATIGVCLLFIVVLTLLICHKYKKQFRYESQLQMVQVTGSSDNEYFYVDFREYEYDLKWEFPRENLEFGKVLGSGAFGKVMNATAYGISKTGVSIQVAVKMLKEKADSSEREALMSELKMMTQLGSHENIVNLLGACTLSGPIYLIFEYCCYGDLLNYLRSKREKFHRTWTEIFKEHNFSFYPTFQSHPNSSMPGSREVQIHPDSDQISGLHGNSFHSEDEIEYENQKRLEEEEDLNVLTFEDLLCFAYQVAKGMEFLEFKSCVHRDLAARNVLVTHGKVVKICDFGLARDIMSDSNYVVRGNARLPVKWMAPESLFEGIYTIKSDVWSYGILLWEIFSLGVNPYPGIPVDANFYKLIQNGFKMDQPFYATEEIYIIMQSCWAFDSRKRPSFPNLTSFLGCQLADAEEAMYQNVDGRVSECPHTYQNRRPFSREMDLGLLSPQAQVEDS
MEASUREMENT_KIND: IC50 (nM)
State just the number; it will be interpreted in nM.

Summary for this compound, `Cc1cnc(Nc2ccc(N3CCN(C)CC3)c(F)c2)nc1Nc1ccc(S(=O)(=O)NC(C)(C)C)cc1` : IC50 is 1.1

----------
TARGET: Vascular endothelial growth factor receptor 2 (Homo sapiens, UniProt P35968)
Sequence (P35968 whole entry): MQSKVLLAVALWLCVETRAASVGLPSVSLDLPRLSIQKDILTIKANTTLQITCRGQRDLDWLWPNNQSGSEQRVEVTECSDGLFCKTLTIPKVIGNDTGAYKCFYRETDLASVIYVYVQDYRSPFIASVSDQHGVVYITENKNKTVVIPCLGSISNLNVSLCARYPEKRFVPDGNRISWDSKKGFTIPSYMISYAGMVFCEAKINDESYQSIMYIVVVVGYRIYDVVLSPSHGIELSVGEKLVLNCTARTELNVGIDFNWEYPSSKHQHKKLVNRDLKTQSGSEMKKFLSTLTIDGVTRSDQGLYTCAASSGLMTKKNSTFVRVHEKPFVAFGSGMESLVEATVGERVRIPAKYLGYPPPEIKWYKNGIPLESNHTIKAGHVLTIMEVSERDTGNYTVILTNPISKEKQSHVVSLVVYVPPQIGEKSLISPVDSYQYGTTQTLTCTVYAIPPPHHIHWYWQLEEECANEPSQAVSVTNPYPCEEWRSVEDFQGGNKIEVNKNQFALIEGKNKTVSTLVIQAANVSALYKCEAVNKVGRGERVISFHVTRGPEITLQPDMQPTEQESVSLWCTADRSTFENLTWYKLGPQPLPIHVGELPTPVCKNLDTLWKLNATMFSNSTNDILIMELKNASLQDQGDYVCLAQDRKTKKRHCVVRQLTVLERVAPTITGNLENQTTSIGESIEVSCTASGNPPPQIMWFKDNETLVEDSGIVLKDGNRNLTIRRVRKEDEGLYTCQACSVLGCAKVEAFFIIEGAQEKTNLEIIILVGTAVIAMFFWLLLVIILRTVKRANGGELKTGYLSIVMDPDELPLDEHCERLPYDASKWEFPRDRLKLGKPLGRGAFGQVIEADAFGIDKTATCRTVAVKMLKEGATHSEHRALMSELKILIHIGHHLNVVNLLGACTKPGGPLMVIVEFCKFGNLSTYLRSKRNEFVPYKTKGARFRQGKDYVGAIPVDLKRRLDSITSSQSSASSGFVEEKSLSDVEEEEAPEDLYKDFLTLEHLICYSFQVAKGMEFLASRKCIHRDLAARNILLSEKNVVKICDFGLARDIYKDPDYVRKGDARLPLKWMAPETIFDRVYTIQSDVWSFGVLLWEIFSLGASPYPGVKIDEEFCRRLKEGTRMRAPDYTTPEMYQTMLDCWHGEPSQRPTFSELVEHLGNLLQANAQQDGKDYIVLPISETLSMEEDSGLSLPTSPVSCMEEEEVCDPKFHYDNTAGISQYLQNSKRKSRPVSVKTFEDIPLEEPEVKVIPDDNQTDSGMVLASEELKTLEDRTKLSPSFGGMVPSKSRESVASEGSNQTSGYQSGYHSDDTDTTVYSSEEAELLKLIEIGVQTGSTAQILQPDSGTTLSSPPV
PROTOCOL_SUMMARY: Inhibition of VEGFR2 (unknown origin) by ELISA
MEASUREMENT_KIND: IC50 (nM)
Report as a plain number; the unit nM is understood.

Briefly, IC50 measured for `Cc1ccc2c(=O)n(Cc3ccccc3)c(SCc3cn(-c4ccc(C(=O)O)cc4)nn3)nc2c1` : 126

----------
TARGET: Phosphatidylinositol 4,5-bisphosphate 3-kinase catalytic subunit delta isoform (Homo sapiens)
Sequence (O00329 whole entry, canonical isoform): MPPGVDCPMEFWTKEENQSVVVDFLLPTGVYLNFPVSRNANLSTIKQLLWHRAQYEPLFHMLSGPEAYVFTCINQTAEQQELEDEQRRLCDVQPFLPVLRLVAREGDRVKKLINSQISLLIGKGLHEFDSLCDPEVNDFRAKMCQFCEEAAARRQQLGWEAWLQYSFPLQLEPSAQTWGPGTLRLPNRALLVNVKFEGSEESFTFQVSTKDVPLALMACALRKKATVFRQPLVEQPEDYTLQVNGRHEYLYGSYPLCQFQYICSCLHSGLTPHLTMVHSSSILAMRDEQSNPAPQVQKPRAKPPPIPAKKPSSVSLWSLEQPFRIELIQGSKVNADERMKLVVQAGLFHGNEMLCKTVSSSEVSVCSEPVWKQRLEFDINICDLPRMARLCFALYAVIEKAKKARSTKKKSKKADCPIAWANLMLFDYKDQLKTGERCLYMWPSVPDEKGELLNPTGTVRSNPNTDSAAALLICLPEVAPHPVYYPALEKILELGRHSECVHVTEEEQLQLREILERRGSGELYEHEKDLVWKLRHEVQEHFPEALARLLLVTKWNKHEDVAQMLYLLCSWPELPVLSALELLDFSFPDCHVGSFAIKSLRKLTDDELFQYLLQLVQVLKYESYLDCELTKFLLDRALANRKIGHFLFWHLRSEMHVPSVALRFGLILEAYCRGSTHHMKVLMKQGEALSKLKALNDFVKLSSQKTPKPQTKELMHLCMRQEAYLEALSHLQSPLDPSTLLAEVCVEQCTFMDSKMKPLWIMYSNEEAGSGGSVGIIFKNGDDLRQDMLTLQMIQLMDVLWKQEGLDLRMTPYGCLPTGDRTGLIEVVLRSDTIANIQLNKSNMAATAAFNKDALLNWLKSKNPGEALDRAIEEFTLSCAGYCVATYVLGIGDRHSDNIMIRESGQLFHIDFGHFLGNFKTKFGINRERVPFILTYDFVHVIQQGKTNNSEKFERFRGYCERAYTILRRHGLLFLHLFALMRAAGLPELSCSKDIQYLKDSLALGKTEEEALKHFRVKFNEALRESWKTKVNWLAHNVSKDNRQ
PROTOCOL_SUMMARY: Inhibition of PI3Kdelta (unknown origin) using PIP2 as substrate incubated for 1 hr in presence of ATP by ADP-Glo assay
MEASUREMENT_KIND: pIC50
// field semantics: pIC50 = negative decimal log of concentration (mol/L)

Please fill in: pIC50 reported for `COc1c(OCCCCCC(=O)NO)ccc2c1N=C(NC(=O)c1ccccc1)N1CCN=C21` = 8.35
